Exercise: state measured pKi for each of the molecules provided.
# measurement_target: human GABAA α2β2γ1 receptor (Homo sapiens (Human), UniProt P47869+Q8N1C3)
# experiment_notes: Radioligand binding assay, competition for [3H]RO7239181, γ1-containing GABAA subtypes
# assay_conditions: Ki h-GABAA α2β2γ1, membranes of HEK293F cells, [3H]RO7239181 20-30 nM, Table 2
For clarity, pKi is expressed as the negative log10 of concentration in mol/L.

q: I have this molecule here, C[C@@H]1N=C(c2c(F)cccc2F)c2c(sc3c2COCCO3)-n2nc(C(=O)NC[C@@](C)(O)C(F)(F)F)nc21 , and I need its recorded pKi.
a: 7.82

q: Moving on to Cc1nnc2n1-c1sc3c(c1C(c1c(F)cccc1F)=N[C@H]2C)COCCC3
a: 7.56

q: Moving on to Cc1nnc2n1-c1sc3c(c1C(c1c(F)cccc1F)=NC2)CCCCO3
a: 7.68

q: Moving on to Cc1nnc2n1-c1sc3c(c1C(c1c(F)cccc1F)=N[C@H]2C)CC[C@H](F)CC3 (single isomer, unassigned)
a: 7.42
